test system: Noggin (protein binding on small-molecule microarray); experiment: small molecules binding Noggin protein – biochemical, 635/667 nm fluorescence, primary screen (AID 1095); settings: 635 nm fluorescence, higher = more signal;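 also: score merges 667 nm feature fluorescence with signal to noise over triplicate slides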
measure_name: composite z-score
Please respond with just the number, no unit label.

>>> df
                                   compound                         system_under_test       measure_name  endpoint_result
0  O=C1O[C@H](c2ccccc2)[C@H](c2ccccc2)N2[C@H]1[C@@H](C(=O)O)[C@]1(C(=O)Nc3ccc(C#CCCO)cc31)[C@H]2c1ccccc1OCCO  Noggin (protein binding on small-molecule microarray)  composite z-score             0.55
1  CO[C@H]1O[C@H](CO)[C@@H](OC(=O)Nc2ccccc2)[C@H](OC(=O)c2cc3ccccc3[nH]2)[C@H]1OC(=O)c1cc2ccccc2[nH]1  Noggin (protein binding on small-molecule microarray)  composite z-score            0.248
2  CC1=C2[C@@H](CCc3ccccc3)OB(O)C[C@@H]2[C@@H]2C(=O)N(Cc3ccccc3)C(=O)[C@@H]2C1  Noggin (protein binding on small-molecule microarray)  composite z-score            0.694
3  N[C@@H](Cc1ccccc1)C(=O)NCc1cn(Cc2ccccc2)nn1  Noggin (protein binding on small-molecule microarray)  composite z-score            0.465

We next turn to a different compound, shown below.
Data request: Would you mind telling me what composite z-score value was observed for CC(c1ccccc1)C(O)C1C=CC2C(=O)N(C)C(=O)C2N1Nc1ccccc1 (stereo unspecified) ?
Data returned: -0.194

====

experiment: FRG1 expression reporter modulators in myotubes – cell-based, C2C12 myotubes, firefly/Renilla luciferase, luminescence, FRG1 inhibition for FSHD, primary screen (AID 1084); settings: FRG1 promoter luciferase, higher = more signal, called active from +8 up or from −8 down
measure_name: z-score
Please respond with just the number, no unit label.

compound	z-score
COCCOC(=O)N1C(=O)[C@@]2(c3cc(C#CC4=CCCCC4)ccc31)[C@H](C(=O)Nc1nc3ccccc3s1)[C@H]1C(=O)O[C@H](c3ccccc3)[C@H](c3ccccc3)N1[C@@H]2c1ccc(O)cc1	0.0402

Data request: Would you mind telling me what z-score value was observed for Cc1ccc(S[C@]2(C(=O)NCC(F)(F)F)CC(=O)N(Cc3cc(C(F)(F)F)cc(C(F)(F)F)c3)[C@@H]2c2ccc(CO)cc2)cc1 ?
Data returned: 0.0697

Data request: COC(=O)[C@@]1(Cc2ccc(OC)cc2)[C@H]2c3cc(C(=O)N(C)C)n(Cc4ccc(OC(F)(F)F)cc4)c3C[C@H]2CN1C(=O)c1ccccc1 ?
Data returned: 2.88

Data request: COC(=O)[C@@]1(Cc2ccc(OC)cc2)[C@H]2c3cc(C(=O)N(C)C)n(Cc4ccc(C)o4)c3C[C@H]2CN1C(=O)c1ccccc1 ?
Data returned: -0.472

Data request: C[N+](C)(C)CCCCCCNC(=O)[C@@H]1C[C@@H]2C(=O)N3CCC[C@H]3C(=O)N2[C@@H]1c1ccc(O)cc1 ?
Data returned: 3.36

Data request: CCOC(=O)C[C@H]1[C@H](OC(=O)c2ccccc2-c2ccccc2)[C@@H](NC(=O)c2ccc3ccccc3c2)c2cc(OCCCO)ccc2N1C(=O)c1ccccc1 ?
Data returned: -0.201

Data request: CN(C)c1ccc(C(O)C2C=CC3C(=O)NC(=O)C3N2Nc2ccccn2)cc1 (stereo not given) ?
Data returned: 2.15

====

system: Human papillomavirus type 1a protein E7 (residues 44-93); assay: small molecules binding HPV E7 44-93 – biochemical, small-molecule microarray, residues 44-93, 635 nm fluorescence, primary screen (AID 1108); conditions: fluorescence 635 nm, higher = more signal;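 also: E7 fragment applied at 1 µg/mL in TBST for 1 h at 4 C; score combines spot fluorescence with its signal to noise ratio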
measure_name: composite z-score
Please respond with just the number, no unit label.

Data request: Would you mind telling me what composite z-score value was observed for C=C[C@H](C)[C@H](OC(=O)Nc1ccc(SC)cc1)c1ccc(OCCO)cc1 ?
Data returned: 0.248

Data request: C=CCNC(=O)[C@H]1[C@@H]2C(=O)O[C@@H](c3ccccc3)[C@@H](c3ccccc3)N2[C@@H](c2ccccc2OCCO)[C@]12C(=O)N(C(=O)OCCOC)c1ccc(C#CC3(O)CCCCCC3)cc12 ?
Data returned: 1.25

Data request: COC(=O)C(CC#Cc1ccc2c(c1)[C@]1(C(=O)N2)[C@H](c2ccc(O)cc2)N2[C@H](c3ccccc3)[C@H](c3ccccc3)OC(=O)[C@H]2[C@@H]1C(=O)NC[C@H](O)c1ccccc1)C(=O)OC ?
Data returned: 0.829

Data request: COc1cc2c(cc1O)C(C1CC1)N(Cc1cccc(OC(F)(F)F)c1)CC2 (configuration not stated) ?
Data returned: -1.05

Data request: COC(=O)[C@@]1(Cc2ccc(F)cc2)[C@H]2c3cc(C(=O)N4CCCC4)n(Cc4ccc(C)c(F)c4F)c3C[C@H]2CN1C(=O)c1ccccc1 ?
Data returned: -0.751

Data request: [N-]=[N+]=Nc1ccccc1C[C@]1(C(=O)N2CCOCC2)COC(c2ccc(OCCCO)cc2)=N1 ?
Data returned: 1.41

Data request: CC1CC/C=C\[C@H]2OC34C=CCN(c5ccc6ccccc6c5)C(=O)[C@H]3N(CCCO)C(=O)[C@@H]4C2C(=O)O1 (some centres not stated) ?
Data returned: -0.499

====

tested on: Noggin (protein binding on small-molecule microarray); experiment: small molecules binding Noggin protein – biochemical, 635/667 nm fluorescence, primary screen (AID 1095); settings: 635 nm fluorescence, higher = more signal;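 also: score merges 667 nm feature fluorescence with signal to noise over triplicate slides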
# key: entry, value: composite z-score
Please respond with just the number, no unit label.

# annotated cases, reported composite z-score shown
>>> print(df.to_string())
                                   molecule       measure_name  endpoint_result
0       O=c1cccc(-c2ccc([N+](=O)[O-])cc2)o1  composite z-score             1.17
1  CCCC[C@@H](O)C1=C(COc2ccccc2)C[C@H]2C(=O)N(Cc3ccccc3)C(=O)[C@H]2[C@H]1CO  composite z-score            0.517
2  C#CCN([C@@H](Cc1ccccc1)C(=O)OC)[C@@H](/C=C/C1CC1)[C@H](O)Cc1ccccc1  composite z-score           0.0503

Data request: Would you mind telling me what composite z-score value was observed for [N-]=[N+]=Nc1ccccc1C[C@]1(C(=O)O)COC(c2ccc(OCCCO)cc2)=N1 ?
Data returned: -0.476

Data request: COc1cccc(C)c1NC(=O)O[C@H]1[C@H](OC(=O)Nc2ccc3c(c2)OCO3)[C@@H](OC(=O)Nc2ccc3c(c2)OCO3)[C@@H](OC)O[C@@H]1CO ?
Data returned: 1.4

Data request: CC(CO)N1C(=O)[C@]2(C)C3C(=O)OCCC/C=C\[C@H]3OC23C=CCN(c2ccc(Cl)cc2)C(=O)[C@@H]13 (stereo partly drawn) ?
Data returned: -0.554

Data request: COc1ccc(CCNC(=O)[C@@]2(Sc3ccc(C)cc3)CC(=O)N(Cc3ccccc3C(F)(F)F)[C@@H]2c2ccc(CO)cc2I)cc1 ?
Data returned: -1.46

Data request: C=C(COC)/C(=C/C[C@H](OC(=O)c1ccncc1)c1ccc(CO)o1)c1cnc2ccccc2c1 ?
Data returned: 0.84

====

test: budding yeast growth changes without added modifier – OD600, strain BY4716, 24 h, basal condition, primary screen (AID 1173); conditions: S. cerevisiae BY4716 growth, OD600, 24 h; higher = more signal, called active from +8 up or from −8 down
// label = TRUE if z-score is not less than 0.3, otherwise FALSE

Known results for compounds:
>>> print(df.to_string())
                                   compound  category
0  CCOC(=O)C[C@H]1[C@H](OC(=O)c2ccc(C(=O)c3ccccc3)cc2)[C@@H](NC(=O)c2ccc3ccccc3n2)c2cc(OCCCO)ccc2N1C(=O)Cc1ccc(OC)cc1      TRUE
1  COc1ccc(CCNC(=O)[C@@]2(Sc3ccc(C)cc3)CC(=O)N(Cc3ccccc3C(F)(F)F)[C@@H]2c2ccc(CO)cc2I)cc1     FALSE
2  CCCC=C(CCC)[C@@H](NC(=O)c1cccs1)c1ccc(C(=O)OC)cc1      TRUE

Data request: Decide: is the reported value of z-score for CC1CC/C=C\[C@H]2OC34C=CCN(Cc5ccccc5)C(=O)[C@H]3N(C(CO)C(C)C)C(=O)[C@@H]4C2C(=O)O1 (some centres not stated) equal to or greater than 0.3?
Data returned: TRUE

Data request: O=C1CS(=O)(=O)C(c2cccc([N+](=O)[O-])c2)N1c1ccccc1 (configuration not stated) ?
Data returned: FALSE

Data request: COc1ccc(CCNC(=O)[C@@H]2c3ccccc3C(=O)N(C3CCCCC3)[C@H]2c2ccc(CO)cc2)cc1 ?
Data returned: FALSE

Data request: COC(=O)[C@@]1(Cc2ccccc2)[C@H]2c3cc(C(=O)N4CCCC4)n(CCc4ccccn4)c3C[C@H]2CN1C(=O)c1ccccc1 ?
Data returned: TRUE
